Test system: 782815-120-R-J1-PDC complex spheroid viability
assay name: Anticancer human tumor 782815-120-R-J1-PDC patient-derived colon adenocarcinoma cell line growth inhibition [RAS]
settings: second compound 0.000949 µM; first compound 10 µM; active compounds read low
observed property: viability, T/C (%)
Please state the figure in %; there is no need to write the unit.

Past entries and their recorded results:
compound	readout units	numeric value
CC(Nc1ccc2c(c1)OCCn1cc(N3C(=O)OCC3C(F)F)nc1-2)C(N)=O (centres undefined) + CCn1c(-c2cc(N3CCN(C)CC3)cnc2C(C)OC)c2c3cc(ccc31)-c1csc(n1)CC(NC(=O)C1CC1C)C(=O)N1CCCC(N1)C(=O)OCC(C)(C)C2	%	78.5
CCC(CC)c1cc(NC2CCC(N)C2)n2nccc2n1 (centres undefined) + CCn1c(-c2cc(N3CCN(C)CC3)cnc2C(C)OC)c2c3cc(ccc31)-c1csc(n1)CC(NC(=O)C1CC1C)C(=O)N1CCCC(N1)C(=O)OCC(C)(C)C2	%	1.4
C[C@@H](NC(=O)c1ncnc(N)c1Cl)c1ncc(C(=O)Nc2cc(C(F)(F)F)c(Cl)cn2)s1 + CCn1c(-c2cc(N3CCN(C)CC3)cnc2C(C)OC)c2c3cc(ccc31)-c1csc(n1)CC(NC(=O)C1CC1C)C(=O)N1CCCC(N1)C(=O)OCC(C)(C)C2	%	66.8

Turning to the following compound.
## Task Sample C[C@@H](NC(=O)c1ncnc(N)c1Cl)c1ncc(C(=O)Nc2cc(C(F)(F)F)c(Cl)cn2)s1 + CCn1c(-c2cccnc2C(C)OC)c2c3cc(ccc31)N1CCOC(CC(NC(=O)C(C(C)C)N(C)C(=O)C3(F)CCN(C(=O)C#CC(C)(C)N(C)C)CC3)C(=O)N3CCCC(N3)C(=O)OCC(C)(C)C2)C1 — what was its viability, T/C?
## Result 56.3

----------
System: 782815-120-R-J1-PDC complex spheroid viability
assay name: Anticancer human tumor 782815-120-R-J1-PDC cell line growth inhibition [RAS];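 also: spheroids exposed to compounds for 7 days before reading; 100% = DMSO vehicle control viability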
settings: second compound 1 µM; first compound 0.316 µM; active compounds read low
observed property: viability, T/C (%)
Your answer is read as %, so omit the unit and give the number.

Example compounds with recorded viability, T/C:
compound	system	observed property	readout units	numeric value
CC1(O)CCCC1n1c(=O)c(C(F)F)cc2cnc(NC3CCN(S(C)(=O)=O)CC3)nc21 (centres undefined) + C=CC(=O)N1CCN(c2nc(OCC3CCCN3C)nc3c(F)c(-c4nc(N)cc(C)c4C(F)(F)F)c(Cl)cc23)C(C)C1	782815-120-R-J1-PDC complex spheroid viability	viability, T/C	%	47.5
CC(=O)OC12COC1CC(O)C1(C)C(=O)C(O)C3=C(C)C(OC(=O)C(O)C(NC(=O)OC(C)(C)C)c4ccccc4)CC(O)(C(OC(=O)c4ccccc4)C21)C3(C)C (centres undefined) + C#Cc1c(F)ccc2cc(O)cc(-c3ncc4c(N5CC6CCC(C5)N6)nc(OCC56CCCN5CC(F)C6)nc4c3F)c12	782815-120-R-J1-PDC complex spheroid viability	viability, T/C	%	30.5
CC(C)NCC(C(=O)N1CCN(c2ncnc3c2C(C)CC3O)CC1)c1ccc(Cl)cc1 (centres undefined) + C#Cc1c(F)ccc2cc(O)cc(-c3ncc4c(N5CC6CCC(C5)N6)nc(OCC56CCCN5CC(F)C6)nc4c3F)c12	782815-120-R-J1-PDC complex spheroid viability	viability, T/C	%	90.7

// next entry
## Task Which value of viability, T/C has been reported for CC1(O)CCCC1n1c(=O)c(C(F)F)cc2cnc(NC3CCN(S(C)(=O)=O)CC3)nc21 (centres undefined) + C#Cc1c(F)ccc2cc(O)cc(-c3ncc4c(N5CC6CCC(C5)N6)nc(OCC56CCCN5CC(F)C6)nc4c3F)c12 in the records?
## Result 75.4
